Molecular target: GST-Co-NF-kB (Capsaspora owczarzaki, UniProt F1ARL5 200-546)
Sequence: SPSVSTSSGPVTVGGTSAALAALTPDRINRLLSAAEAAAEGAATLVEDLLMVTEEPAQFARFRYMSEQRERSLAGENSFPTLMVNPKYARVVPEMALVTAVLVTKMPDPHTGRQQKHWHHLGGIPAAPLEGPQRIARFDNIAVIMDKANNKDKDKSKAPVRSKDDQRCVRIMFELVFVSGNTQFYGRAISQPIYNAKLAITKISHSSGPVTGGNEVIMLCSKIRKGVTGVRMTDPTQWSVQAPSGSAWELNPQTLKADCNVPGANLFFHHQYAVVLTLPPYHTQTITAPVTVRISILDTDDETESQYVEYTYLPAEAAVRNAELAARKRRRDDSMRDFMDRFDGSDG
Experiment: protein-binding microarray (PBM); PBM: ~300 nM protein, 6 mM HEPES pH 7.8, 80 mM KCl, 0.5 mM EDTA, 0.5 mM EGTA, 6% glycerol, 35 ng/ul poly-dIdC, 1% milk, 1 h, room temperature; Ap Aiptasia and Nv Nematostella (sea anemones) / Co Capsaspora / Aq Amphimedon (sponge) / Dm Drosophila / Hu human; RHD is the Rel homology domain; high values mean tight binding
Settings: dsDNA, one strand shown
endpoint-label: binding signal (z-score)
Just the number in z-score, nothing appended.

Reference set, count: 8
residue-string | endpoint-label | unit-of-measure | value-measured
CCGATTAACATCAAAACACTCCCTGATGTTAATCGGGTCTTGATTCGCTTGACGCTGCTG | binding signal | z-score | 2.06
CCGATTAACATCACGAGATTCCCTGATGTTAATCGGGTCTTGATTCGCTTGACGCTGCTG | binding signal | z-score | 2.52
CCGATTAACATCAAATTCTCCCCTGATGTTAATCGGGTCTTGATTCGCTTGACGCTGCTG | binding signal | z-score | 8.72
CCGATTAACATCAATTTCCCAGGTGATGTTAATCGGGTCTTGATTCGCTTGACGCTGCTG | binding signal | z-score | 3.41
CCGATTAACATCAGGGGGGTTTATGATGTTAATCGGGTCTTGATTCGCTTGACGCTGCTG | binding signal | z-score | 4.39
CCGATTAACATCAGGGGCTTACCTGATGTTAATCGGGTCTTGATTCGCTTGACGCTGCTG | binding signal | z-score | 1.88
CCGATTAACATCAACAAATTCCCTGATGTTAATCGGGTCTTGATTCGCTTGACGCTGCTG | binding signal | z-score | 4.16
CCGATTAACATCAAGGGGAAGGGTGATGTTAATCGGGTCTTGATTCGCTTGACGCTGCTG | binding signal | z-score | 3.95

Inquiry: Supply measured binding signal of CCGATTAACATCAAAATTCCCATTGATGTTAATCGGGTCTTGATTCGCTTGACGCTGCTG in your reply.
Reply text: 3.56

Inquiry: Assign binding signal to the following record: CCGATTAACATCAAAACACCCCTTGATGTTAATCGGGTCTTGATTCGCTTGACGCTGCTG
Reply text: 2

Inquiry: Input CCGATTAACATCAAGGGGAAATCTGATGTTAATCGGGTCTTGATTCGCTTGACGCTGCTG , output reported binding signal.
Reply text: 7.59

Inquiry: Please give the documented binding signal of CCGATTAACATCAATTGGGAAAATGATGTTAATCGGGTCTTGATTCGCTTGACGCTGCTG
Reply text: 2.47

Inquiry: Tell me measured binding signal for CCGATTAACATCAGGGGTAGAACTGATGTTAATCGGGTCTTGATTCGCTTGACGCTGCTG please.
Reply text: 5.07

Values from paper PMC5700166
